# enhancement listing for each entry below
System Under Test: Thyrotropin-releasing hormone receptor (Homo sapiens)
Assay Method Text: qHTS for Small Molecule Agonists and Allosteric Enhancers of Human TRH Receptor: Primary Screen for Enhancers; note: 0% is about no effect
Measurement Parameters: TRHR cells, fluo-8 calcium fluorescence, EC20 TRH enhancement; at 2 µM; active compounds read high
Screen size: about 360,000 compounds; about 2,400 (0.67%) were called active. What follows is part of a selection rich in actives, with near analogues and random picks from the rest.
Recorded Metric: enhancement (%)

Compound	Recorded Metric	Observed Value
O=C(COC(=O)c1ccc(O)cc1O)NNC(=O)c1cccs1	enhancement	6.82
C/C(=N\NC(=O)Cc1ccccc1[N+](=O)[O-])c1cccnc1	enhancement	2.77
CCOc1ccc(C(=O)c2cn(Cc3ccccc3OC)c3ccc(F)cc3c2=O)cc1	enhancement	-0.366
CCCNc1ncnc2c1c(-c1ccccc1)cn2-c1ccc(OCC)cc1	enhancement	-5.52
Cc1nc2sc(C)c(C)n2c(=O)c1S(=O)(=O)NCCc1ccc(Cl)cc1	enhancement	2.98
O=C(/C=C/c1ccc(Cl)c([N+](=O)[O-])c1)c1cccnc1	enhancement	36.2
Cc1cc(C)cc(Nc2ncnc3onc(-c4ccc(F)cc4)c23)c1	enhancement	5.09
COc1cccc(-n2cc(C(=O)NCc3cccc(Cl)c3)c3ccccc3c2=O)c1	enhancement	-3.45
CSCCC(C(=O)NC1=NCCS1)N1C(=O)c2ccccc2C1=O (stereo unspecified)	enhancement	33.2
CC(NC(=O)COc1ccccc1)C(=O)NC1=NCCS1 (stereo unspecified)	enhancement	1.42
Cc1ccc(C)c(NC(=O)CCC(=O)NNC(=O)c2cccs2)c1	enhancement	30

====

# enhancement listing for each entry below
System Under Test: Thyrotropin-releasing hormone receptor (Homo sapiens) (UniProt P34981)
Sequence (P34981 whole entry, looked up): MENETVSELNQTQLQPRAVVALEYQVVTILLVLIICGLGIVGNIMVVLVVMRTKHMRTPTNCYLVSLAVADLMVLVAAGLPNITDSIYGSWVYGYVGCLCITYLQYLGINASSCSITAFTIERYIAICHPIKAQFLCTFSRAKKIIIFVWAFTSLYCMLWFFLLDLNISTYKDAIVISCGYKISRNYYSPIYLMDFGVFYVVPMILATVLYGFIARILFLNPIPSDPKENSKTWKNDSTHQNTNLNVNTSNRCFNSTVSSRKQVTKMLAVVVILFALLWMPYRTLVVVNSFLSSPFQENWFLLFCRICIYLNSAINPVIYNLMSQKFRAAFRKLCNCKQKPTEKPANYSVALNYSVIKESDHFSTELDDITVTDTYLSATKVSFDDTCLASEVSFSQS
Assay Method Text: qHTS for Small Molecule Agonists and Allosteric Enhancers of Human TRH Receptor: Primary Screen for Enhancers; note: 0% is about no effect
Measurement Parameters: TRHR cells, fluo-8 calcium fluorescence, EC20 TRH enhancement; at 2 µM; active compounds read high
Screen size: about 360,000 compounds; about 2,400 (0.67%) were called active. This excerpt belongs to a sample that is enriched for actives.

Compound	Display Unit	enhancement
O=C(NCCc1csc(-c2ccc(C(F)(F)F)cc2)n1)C(=O)Nc1ccc(F)c(Cl)c1	%	0.606
Cn1c(=O)n(Cc2c(F)cccc2Cl)c(=O)c2c1nc1n2CCN1c1ccc(F)cc1	%	0.582
C=CCOc1cccc(C2NC(=O)c3ccccc3O2)c1 (stereo not given)	%	-1.8
O=C(c1ccc2ccccc2n1)N1CCN(c2ccccc2Cl)CC1	%	2.59
CC(C)(C)c1ccc(C(=O)N2CCC(c3nc(-c4ccc(S(=O)(=O)N5CCCC5)cc4)no3)CC2)cc1	%	-2.71
O=C1NC(c2ccccc2)Oc2ccccc21 (stereo not given)	%	36.1
COc1ccc(-c2noc(CCC(=O)N(C)c3ccccc3C)n2)cc1	%	6.52
COc1ccc(CCn2ccc(O)c(Cc3ccc(Cl)cc3Cl)c2=O)cc1OC	%	54.5
COc1ccccc1C(=O)Nc1c(C(=O)Nc2ccc(C)cc2)oc2ccccc12	%	1.48
Cc1ccc(S(=O)(=O)N(CC(=O)Nc2ccc(Cl)cc2Cl)c2ccccc2C)cc1	%	-0.851

====

System Under Test: Thyrotropin-releasing hormone receptor (Homo sapiens) (UniProt P34981)
Assay Method Text: qHTS for Small Molecule Agonists and Allosteric Enhancers of Human TRH Receptor: Primary Screen for Enhancers; note: 0% is about no effect
Measurement Parameters: TRHR cells, fluo-8 calcium fluorescence, EC20 TRH enhancement; at 2 µM; active compounds read high
Screen size: about 360,000 compounds; about 2,400 (0.67%) were called active. This excerpt belongs to a sample that is enriched for actives.
# enhancement listing for each entry below
Recorded Metric: enhancement (%)

Compound	Observed Value
O=C(CC1CCCCC1)NCc1ccco1	14.2
O=[S+]([O-])(c1ccc(OC(F)(F)F)cc1)N1CCN([S+](=O)([O-])c2ccc3c(c2)OCCO3)CC1	-5.08
CCc1[nH]nc(C(=O)N2CCCC(CO)(Cc3ccc(F)cc3F)C2)c1C (stereo unspecified)	-3.46
COC(=O)c1cc(N2CCNCC2)nc2ccccc12	50.7
CSc1n[nH]c(=S)n1N	4.42
Cc1nnc(SCC(=O)NCc2ccccc2Cl)c2nn(-c3ccccc3)c(C)c12	4.74
CCCc1cc(=O)[nH]c(SCC(=O)N2C(C)CCCC2C)n1 (stereo unspecified)	6.92
Cc1ccccc1CC1(CO)CCCN(Cc2ccc3c(c2)OCCO3)C1 (stereo unspecified)	2.06
CC(C)Cn1c(N)c(C(=O)COC(=O)CN2C(=O)C3CC=CCC3C2=O)c(=O)n(C)c1=O (stereo unspecified)	0.142
COc1ccccc1-c1cc2nc(C)c(CCC(=O)O)c(C)n2n1	5.74
COc1ccc(Cc2n[nH]c(=S)n2NC(=O)Nc2ccc(C)cc2)cc1	-6.6

====

# enhancement listing for each entry below
System Under Test: Thyrotropin-releasing hormone receptor (Homo sapiens) (UniProt P34981)
Assay Method Text: qHTS for Small Molecule Agonists and Allosteric Enhancers of Human TRH Receptor: Primary Screen for Enhancers; note: 0% is about no effect
Measurement Parameters: TRHR cells, fluo-8 calcium fluorescence, EC20 TRH enhancement; at 2 µM; active compounds read high
The whole screen tested about 360,000 compounds, of which about 2,400 (0.67%) were called active. The full list was thinned out, with actives kept by preference.
Recorded Metric: enhancement (%)

Compound	Recorded Metric	Observed Value
CCOc1ccc(NC(=O)CSc2c3c(nc4ccccc24)CCCC3)cc1	enhancement	-3.93
CCOC(=O)C1CCN(c2csc3ccc(C)cc3c2=O)CC1	enhancement	-6.67
O=C(COC(=O)CCCSc1nc2ccccc2[nH]1)Nc1ccc(Oc2ccccc2)cc1	enhancement	1.7
Cc1nc(CN(C)C(=O)CC2C(=O)NCCN2Cc2ccc(F)cc2)cs1 (stereo unspecified)	enhancement	20.6
O=C(COC(=O)c1c2c(nc3ccccc13)CCCC2)c1ccc(Br)s1	enhancement	35
COC(=O)c1sc2ncccc2c1-n1c(C)ccc1C	enhancement	4.46
COC(=O)c1cccc(NC(=O)CSc2nc(C)cc(=O)[nH]2)c1	enhancement	36.7
CCS(=O)(=O)c1nc(S(=O)(=O)c2ccc(C)cc2)c(NCc2ccc(Cl)cc2)s1	enhancement	0.719
O=C(NCc1nnc(C(=O)Nc2ccc(C(F)(F)F)cc2Cl)o1)c1ccccc1	enhancement	0.059
CC(C)(C)CN1CCNC(=O)C1CC(=O)NC1Cc2ccccc2C1 (stereo unspecified)	enhancement	-4.71
c1cnc(N2CCN(c3ccc4ccccc4n3)CC2)nc1	enhancement	45.5

====

System Under Test: Thyrotropin-releasing hormone receptor (Homo sapiens)
Assay Method Text: qHTS for Small Molecule Agonists and Allosteric Enhancers of Human TRH Receptor: Primary Screen for Enhancers; note: 0% is about no effect
Measurement Parameters: TRHR cells, fluo-8 calcium fluorescence, EC20 TRH enhancement; at 2 µM
Among all 360,000 compounds or so, about 2,400 (0.67%) were called active. No stated cut-off is given here; in the data, active means enhancement above about 30%; inactive means the rest. Many of the other results were omitted from the sample, so actives are more common in it than they were.
Possible outcomes: 1 (active), -1 (inactive)

Compound	System Under Test	Assigned Category
CCOC(=O)/C(C#N)=C\c1c(C)cc(C)c(COC(C)=O)c1C	Thyrotropin-releasing hormone receptor (Homo sapiens)	-1
COC(=O)/C(C#N)=C/c1occc1C	Thyrotropin-releasing hormone receptor (Homo sapiens)	1
Cc1c(/C=N\NC(=O)c2cc3ccccc3o2)c2ccccc2n1C	Thyrotropin-releasing hormone receptor (Homo sapiens)	1
Cc1noc(C)c1-c1ccc2ncnc(NCc3ccc(F)c(F)c3)c2c1	Thyrotropin-releasing hormone receptor (Homo sapiens)	-1
Cc1ccccc1NC(=O)Cn1c(=O)n(CCCCC(=O)NCc2ccccc2Cl)c(=O)c2ccccc21	Thyrotropin-releasing hormone receptor (Homo sapiens)	-1
COc1ccc(-n2nc(C(=O)NCCc3ccc(Cl)cc3)c3c4ccccc4n(C)c3c2=O)cc1Cl	Thyrotropin-releasing hormone receptor (Homo sapiens)	-1
CCOc1cc(C2C(C(=O)Nc3ccc(OC)cc3)=C(C)Nc3nc(SC)nn32)ccc1O (stereo not given)	Thyrotropin-releasing hormone receptor (Homo sapiens)	-1
CC(C)(C)n1nc2c(c1NC(=O)c1cc3ccccc3o1)CSC2	Thyrotropin-releasing hormone receptor (Homo sapiens)	-1
O=C(Nc1nnc(C2CC(=O)N(c3ccc(Cl)cc3)C2)s1)c1ccco1 (stereo not given)	Thyrotropin-releasing hormone receptor (Homo sapiens)	-1
Cc1c(C(=O)N(C)C)sc2c1c(=O)n(-c1ccc(F)cc1)c(=O)n2CC(=O)N(C)c1ccccc1	Thyrotropin-releasing hormone receptor (Homo sapiens)	-1

====

System Under Test: Thyrotropin-releasing hormone receptor (Homo sapiens)
Assay Method Text: qHTS for Small Molecule Agonists and Allosteric Enhancers of Human TRH Receptor: Primary Screen for Enhancers; note: 0% is about no effect
Measurement Parameters: TRHR cells, fluo-8 calcium fluorescence, EC20 TRH enhancement; at 2 µM; active compounds read high
In all, about 360,000 compounds went through this assay and about 2,400 (0.67%) were called active. The sample as a whole holds a higher share of actives than the screen did.
Assign met whenever enhancement does not fall below 20%; assign not met whenever it does.

Molecule	System Under Test	Assigned Category
CCCNC(=O)c1ccc(N2CCC3(CC2)CC(c2cccc(Br)c2)=NO3)c(NC(=O)c2ccco2)c1	Thyrotropin-releasing hormone receptor (Homo sapiens)	met
Cc1ccccc1OCc1ccc(-c2nc(C#N)c(N3CCCCC3)o2)o1	Thyrotropin-releasing hormone receptor (Homo sapiens)	not met
CCn1nnnc1SCC(=O)c1ccc(C)cc1C	Thyrotropin-releasing hormone receptor (Homo sapiens)	not met
S=C(Nc1ccc(Br)cc1Cl)NC1CCN(Cc2ccccc2)CC1	Thyrotropin-releasing hormone receptor (Homo sapiens)	not met
Cc1ccc(C)c(CN2C(=O)c3ccccc3S(=O)c3ccc(C(=O)N4CCOCC4)cc32)c1 (stereo not given)	Thyrotropin-releasing hormone receptor (Homo sapiens)	met
Cc1ccc(C)c(N2CCN(CCCNC(=O)Nc3ccc(Cl)cc3)CC2)c1	Thyrotropin-releasing hormone receptor (Homo sapiens)	not met
O=C1C(=O)N(CCCO)C(c2ccccc2)/C1=C(\O)c1ccc(Br)cc1 (stereo not given)	Thyrotropin-releasing hormone receptor (Homo sapiens)	met
CCOc1ccc(NC(=O)c2cc3c(=O)n(Cc4cccs4)ccc3nc2C)cc1	Thyrotropin-releasing hormone receptor (Homo sapiens)	not met
Cc1cc(Br)ccc1NC(=S)NC1CCCC1	Thyrotropin-releasing hormone receptor (Homo sapiens)	met
O=C(c1ccc2c(c1)N(Cc1ccccc1F)C(=O)c1ccccc1S2(=O)=O)N1CCOCC1	Thyrotropin-releasing hormone receptor (Homo sapiens)	not met
